EC50 (#of APC cells), NFAT-luciferase listing for selected binders.
- TARGET ENTITY: HLA.A2/hB2M/NY-ESO-1: 157-165 WT on 3T3 cells (human) (UniProt P04439)
- PROTOCOL DESCRIPTION: cell-based or functional assay
Number only, in APC cells; omit the unit.

- BINDER: "NY-ESO CAR-T 24959N VL-VH (protein, part only; not given: scFv linker, hinge, signalling domains, not shown: large carriers) chain, part: DIQMTQSPSSLSASVGDRVTITCQASQDISNYLKWYQQKPGKAPKILIHDASNLEIGVPSRFSGSGAGTDFIFTISSLQPEDIGTYYCQQYDNLPITFGQGTRLEIKQLQLLESGPGLVKPSETLSLICTVSGGSIRGSSYYWGWIRQPPEKGLEWIGSIYSSGSTYYNPSLKSRVTISADTSKNQFSLKLSSVTAADTAVYYCARHGGITAVQLEFDPWGQGTLVTVSS"
  READOUT: "EC50 (#of APC cells), NFAT-luciferase"
  UOM: "APC cells"
  REPORTED MEASUREMENT: 24000
- BINDER: "NY-ESO CAR-T 24959N VH-VL (protein, part only; not given: scFv linker, hinge, signalling domains, not shown: large carriers) chain, part: QLQLLESGPGLVKPSETLSLICTVSGGSIRGSSYYWGWIRQPPEKGLEWIGSIYSSGSTYYNPSLKSRVTISADTSKNQFSLKLSSVTAADTAVYYCARHGGITAVQLEFDPWGQGTLVTVSSDIQMTQSPSSLSASVGDRVTITCQASQDISNYLKWYQQKPGKAPKILIHDASNLEIGVPSRFSGSGAGTDFIFTISSLQPEDIGTYYCQQYDNLPITFGQGTRLEIK"
  READOUT: "EC50 (#of APC cells), NFAT-luciferase"
  UOM: "APC cells"
  REPORTED MEASUREMENT: 14200
- BINDER: "NY-ESO CAR-T 24958N VH-VL (protein, part only; not given: scFv linker, hinge, signalling domains, not shown: large carriers) chain, part: QVQLQESGPGLVKPSQTLSLTCTVSGGSIISDGYYWSWIRQHPGKGLEWIGYVDYSGNTYYNPSLKSRIIMSVDTSKNQFSLKLTSVTAADTAVYFCVREGPLRDAFEIWGQGTMVTVSSDIQMTQSPSSLSASVGDRVTITCRTSQSISRYLNWYQQKPGKAPKLLIFAASSLQSGVPSRFSGSGSGADFTLTISSLQPEDFATYYCQQSYSTPPITFGQGTRLEIK"
  READOUT: "EC50 (#of APC cells), NFAT-luciferase"
  UOM: "APC cells"
  REPORTED MEASUREMENT: 24500

Next binder, EC50 (#of APC cells), NFAT-luciferase to be filled in.
Name the recorded EC50 (#of APC cells), NFAT-luciferase for NY-ESO CAR-T 24958N VL-VH (protein, part only; not given: scFv linker, hinge, signalling domains, not shown: large carriers) chain, part: DIQMTQSPSSLSASVGDRVTITCRTSQSISRYLNWYQQKPGKAPKLLIFAASSLQSGVPSRFSGSGSGADFTLTISSLQPEDFATYYCQQSYSTPPITFGQGTRLEIKQVQLQESGPGLVKPSQTLSLTCTVSGGSIISDGYYWSWIRQHPGKGLEWIGYVDYSGNTYYNPSLKSRIIMSVDTSKNQFSLKLTSVTAADTAVYFCVREGPLRDAFEIWGQGTMVTVSS .
19900
